// provenance: the Deep4Chem optical property database

- experimentalDetails: solvent given as SMILES
- testSettings: in O
attributeMeasured: absorption maximum (nm)

Respond only with absorption maximum recorded for CC1=N/C(=C\c2ccccc2N)C(=O)N1C
390

Identify measured absorption maximum corresponding to O=[N+]([O-])c1ccccc1O
411

// Input: Cc1cc(=O)oc2c3c4c(cc12)CCCN4CCC3 . Output its absorption maximum only.
396

Answer with the recorded absorption maximum of O=C(O)CCCCCn1c2ccccc2c(=O)c2ccccc21 only.
410

Given c1ccc(-c2nc(-c3c[nH]c4ccccc34)n3ccccc23)cc1 , respond with its absorption maximum.
390

Report measured absorption maximum; entry is O=C(O)CCCCCn1c2ccccc2c(=O)c2cc(S(=O)(=O)O)ccc21
409

Read off the recorded absorption maximum for C[NH+](C)c1c2ccccc2cc2ccccc12
389

Answer with the recorded absorption maximum for the molecule listed here: Cc1cc(O)c(C(C)C)cc1/N=C/c1ccc([N+](=O)[O-])cc1
395

Provide absorption maximum value for the following molecule: CCOC(=O)CCCCCn1c2ccccc2c(=O)c2cc(N)ccc21
405

Please report absorption maximum for the following molecule: O=C(O)CCCCCNC(=O)c1cccc2c(=O)c3ccccc3[nH]c12
409
